Test: Toxicity liver stage against HepG2, at 10uM
Format: cell-based
Set-up: test concentration 10 uM, cell line HepG2-A16-CD81EGFP
Conditions: human, HepG2-A16-CD81EGFP cells; read-out: INHIBITION

| Compound | Unit spec | cytotoxicity at 10 µM |
| --- | --- | --- |
| O=C(N1CCOCC1)N1CC[C@@](O)(c2ccccc2)[C@H]2CCCC[C@@H]21 | % | -1.11 |
| Cc1cc(CN(C)C2CCCN(Cc3noc(C)n3)C2)on1 (stereo not given) | % | -5.85 |
| Cc1nc(CN2CCc3ncnc(-c4ccsc4)c3CC2)cs1 | % | -79.8 |
| Cc1nccc(C2CCCCN2Cc2ccccc2)n1 (stereo not given) | % | -28.2 |
| Cc1[nH]ccc1C(=O)Nc1cccc(CN2CCC(CO)CC2)c1 | % | -9.37 |
| Cn1nc(C2CNCCO2)cc1CCOc1cccc(C(F)(F)F)c1 (stereo not given) | % | -1.02 |
| O=C(NC1CCc2cc(Cl)ccc21)C1CCN(C(=O)C2CC2)CC1 (stereo not given) | % | -1.43 |
| CC(=O)c1ccc(S(=O)(=O)Nc2cnn(C3CCOCC3)c2)cc1 | % | -2.25 |
| O=C(O)c1c(-c2cncnc2)ncc2c1CCN(Cc1cccnc1)C2 | % | 10.6 |
| CCn1nc(CC(C)C)cc1C(=O)N1CCCC(C#N)C1 (stereo not given) | % | -8.2 |

Source of measurements: ChEMBL document CHEMBL4513216
